# TARGET_OF_ASSAY: Cytochrome P450 1A2 (Homo sapiens)
# Sequence (P05177 whole entry): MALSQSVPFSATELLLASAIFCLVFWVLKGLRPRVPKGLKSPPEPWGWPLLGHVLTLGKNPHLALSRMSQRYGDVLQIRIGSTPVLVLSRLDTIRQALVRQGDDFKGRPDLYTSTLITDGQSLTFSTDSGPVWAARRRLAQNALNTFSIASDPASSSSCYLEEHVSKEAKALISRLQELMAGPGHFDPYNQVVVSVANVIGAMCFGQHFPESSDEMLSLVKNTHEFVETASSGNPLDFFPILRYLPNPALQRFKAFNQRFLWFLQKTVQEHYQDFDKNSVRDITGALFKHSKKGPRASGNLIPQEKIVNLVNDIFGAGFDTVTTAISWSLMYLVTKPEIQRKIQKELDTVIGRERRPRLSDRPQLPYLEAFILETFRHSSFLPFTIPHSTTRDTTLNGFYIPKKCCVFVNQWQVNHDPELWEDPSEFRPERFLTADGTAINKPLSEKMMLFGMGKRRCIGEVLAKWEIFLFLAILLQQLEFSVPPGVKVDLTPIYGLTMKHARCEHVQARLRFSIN
# PROCEDURE_DETAILS: Inhibition of human recombinant CYP1A2
pIC50: −log10 of the molar value.
MEASURE: pIC50

What value of pIC50 has been reported for the following molecule? Cc1ccc(C(=O)N(CCCN)C(c2nc3snc(C)c3c(=O)n2Cc2ccccc2)C(C)C)cc1 (single isomer, unassigned; (+))
< 5.00

---

# PROCEDURE_DETAILS: Drug level in fiber in Hans Wistar rat hollow fiber model implanted with human COLO205 cells at 6 mg/kg, iv after 24 hrs
# Type: ADME, organism-based, COLO 205
# Design: dose 6 mg/kg, route intravenous
# ASSAY_SETUP: read-out: Drug uptake
MEASURE: concentration at 24 h (ng/mL)
The figure you give is taken to be in ng/mL; do not add the unit.

Name the reported concentration at 24 h value associated with the compound Cc1ccc(C(=O)N(CCCN)C(c2nc3snc(C)c3c(=O)n2Cc2ccccc2)C(C)C)cc1 (single isomer, unassigned; (+))
30.7
